The reported measurements were obtained from patent US20170037110A1.

# Test system: T1, HLA-A*02:01 (human)
# T1 construct: monomers captured on streptavidin plates; also called MHC class I
# Experimental details: UV peptide exchange ELISA
Quantity: peptide exchange yield

- Binder: "VTVPPGPSL"
  Reading: "20 to 50%"
- Binder: "FLPEALDFV"
  Reading: "50 to 75%"
- Binder: "AVMESIQGV"
  Reading: "50 to 75%"
- Binder: "YLYSVEIKL"
  Reading: "≥ 75%"
- Binder: "GLLENIPRV"
  Reading: "50 to 75%"
- Binder: "LLDSASAGLYL"
  Reading: "50 to 75%"
- Binder: "YLMDLINFL"
  Reading: "50 to 75%"
- Binder: "SLVGEPILQNV"
  Reading: "20 to 50%"
